Collected inhibition values appear next to each entry.
# protocol.notes: human hepatoma cell viability loss – ATP luminescence, cytotoxicity control for P. falciparum antimalarial project, primary screen (AID 2303);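 note: 0% = DMSO wells and 100% = digitonin-killed cells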
# condition.description: HepG2 viability, 24-48 h, at 10 µM, active compounds read high
The source made the active and inactive calls.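 Rule for the calls: active = inhibition above 50%; inactive = the rest.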
measured.metric: inhibition

1) O=C1OC(c2cc3ccccc3n2S(=O)(=O)c2ccccc2)(c2cc3ccccc3n2S(=O)(=O)c2ccccc2)c2ccccc21    1% (inactive)
2) O=C(Cc1ccccc1)NC(c1ccco1)c1cc(Cl)c2cccnc2c1O (stereo not given)    44% (inactive)
3) CNCCCn1c(N(C)C)nc2cc(-n3cnc4cc(-c5ccc(Cl)cc5)sc4c3=O)ccc21    39% (inactive)
4) CC(C)(C)c1ccc(CNC(=O)c2ccc(CNC3CCC(N)CC3)s2)cc1 (stereo not given)    41% (inactive)
5) Cc1cc(Nc2nc(NCc3cccnc3)nc3ccccc23)n[nH]1    11% (inactive)
